Assay: ATG_EGR_CIS: Attagene CIS-FACTORIAL HepG2 Assay for human Early Growth Response 1 (EGR1) (AID 2282938)
Conditions: HepG2 Attagene CIS-FACTORIAL EGR reporter mRNA; actives raise or lower the signal
Experimental: ATG_CIS is a cell-based, multiplexed-readout assay that uses HepG2, a human liver cell line, with measurements taken at 24 hours after chemical dosing in a 24-well plate.ATG_EGR_CIS is one of 52 assay component(s) measured or calculated from the ATG_CIS assay. […] This assay endpoint, ATG_EGR_CIS, was analyzed with bidirectional fitting relative to DMSO as the negative control and baseline of activity. […]
Active and inactive are the calls of the source. Rule for the calls: active = hit-call score of the fitted dose curve at least 0.9, where 1 is the maximum; inactive = score below 0.9. Peptide text beside a SMILES is read from it.
Labels: y (active), n (inactive)

MOLECULE	ANSWER_LABEL
C=Cc1ccc(OC(C)=O)cc1	n
CN1CCN(C)CC1	n
CC(C)c1ccc2ncccc2c1	n
Oc1ccc(-c2ccccc2)c(Cl)c1	y
CCCCCCCCCCCCCc1ccccc1	n
CC(=O)OC/C=C(/C)CCC=C(C)C	n
CC1C(C)(C)C2=C(C(=O)CCC2)C1(C)C (stereo unspecified)	n
Nc1cccc(N)n1	n
CCCCCCCCCCCCc1ccc(O)cc1	n
CC(C)[N+](C)(CCOC(=O)C1c2ccccc2Oc2ccccc21)C(C)C	n
c1ccc(-c2nc3ccccc3[nH]2)cc1	n
C=C(C)OC(C)=O	n
c1ccc(Nc2cccc3ccccc23)cc1	y
CC(C)(CO)C(O)C(=O)NCCCO (stereo unspecified)	n
CCCCCCO	n
COC(=O)[C@H](Cc1ccccc1)NC(=O)[C@@H](N)CC(=O)O (H-Asp-Phe-OMe)	n
CCN1CN(CC)CN(CC)C1	n
C=CC(=O)OCCCCCCCC(C)C	n
CCOC(=O)OC(=O)OCC	n
CCCCCCOc1ccc(N)cc1	n
C[N+](C)(C)CCCNS(=O)(=O)C(F)(F)C(F)(F)C(F)(F)C(F)(F)C(F)(F)C(F)(F)C(F)(F)C(F)(F)F	n
Cc1c[nH]c(=O)[nH]c1=O	n
CC=CC(=O)OCC(C)C	n
CCC[Si](OC)(OC)OC	n
CCC(=O)C1CC(C(C)C)CC=C1C (stereo unspecified)	n
N#Cc1ccc(C(c2ccc(C#N)cc2)n2cncn2)cc1	n
O=C(O)C1CCC(C(=O)O)CC1 (stereo unspecified)	n
CC(C)=NNC(N)=S	n
NC(=O)Nc1ccccc1	n
Oc1ccc(/C=C/c2cc(O)cc(O)c2)cc1	n
CC1=C(O)C(=O)C(C)O1 (stereo unspecified)	n

###

Read-out: Tumor necrosis factor (Homo sapiens) (UniProt P01375)
Sequence (P01375 whole entry, looked up): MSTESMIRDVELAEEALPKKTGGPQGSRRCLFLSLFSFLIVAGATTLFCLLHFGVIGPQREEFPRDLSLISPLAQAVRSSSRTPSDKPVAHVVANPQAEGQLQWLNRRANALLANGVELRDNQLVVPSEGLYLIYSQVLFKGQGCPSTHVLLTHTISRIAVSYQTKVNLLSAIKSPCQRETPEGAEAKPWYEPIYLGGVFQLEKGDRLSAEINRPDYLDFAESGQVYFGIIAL
Assay: BSK_LPS_TNFa: BioMAP Diversity Plus: LPS Assay for Tumour Necrosis Factor alpha (TNFa) Biomarker Activity (AID 2283085)
Details: primary human HUVEC with PBMC; actives raise or lower the signal
Activity calls are given as the source filed them. How the source made its calls: active means hit-call score of the fitted dose curve at least 0.9, where 1 is the maximum; inactive means score below 0.9.

SMILES_STRING	outcome
Cc1ccc([N+](=O)[O-])cc1N	inactive
Nc1nc(N)nc(-c2ccccc2)n1	inactive
CC(c1cc(C(C)(C)C)cc(C(C)(C)C)c1O)c1cc(C(C)(C)C)cc(C(C)(C)C)c1O	inactive

###

Target: Transcription factor Sp1 (Homo sapiens) (UniProt P08047)
Sequence (P08047 whole entry, looked up): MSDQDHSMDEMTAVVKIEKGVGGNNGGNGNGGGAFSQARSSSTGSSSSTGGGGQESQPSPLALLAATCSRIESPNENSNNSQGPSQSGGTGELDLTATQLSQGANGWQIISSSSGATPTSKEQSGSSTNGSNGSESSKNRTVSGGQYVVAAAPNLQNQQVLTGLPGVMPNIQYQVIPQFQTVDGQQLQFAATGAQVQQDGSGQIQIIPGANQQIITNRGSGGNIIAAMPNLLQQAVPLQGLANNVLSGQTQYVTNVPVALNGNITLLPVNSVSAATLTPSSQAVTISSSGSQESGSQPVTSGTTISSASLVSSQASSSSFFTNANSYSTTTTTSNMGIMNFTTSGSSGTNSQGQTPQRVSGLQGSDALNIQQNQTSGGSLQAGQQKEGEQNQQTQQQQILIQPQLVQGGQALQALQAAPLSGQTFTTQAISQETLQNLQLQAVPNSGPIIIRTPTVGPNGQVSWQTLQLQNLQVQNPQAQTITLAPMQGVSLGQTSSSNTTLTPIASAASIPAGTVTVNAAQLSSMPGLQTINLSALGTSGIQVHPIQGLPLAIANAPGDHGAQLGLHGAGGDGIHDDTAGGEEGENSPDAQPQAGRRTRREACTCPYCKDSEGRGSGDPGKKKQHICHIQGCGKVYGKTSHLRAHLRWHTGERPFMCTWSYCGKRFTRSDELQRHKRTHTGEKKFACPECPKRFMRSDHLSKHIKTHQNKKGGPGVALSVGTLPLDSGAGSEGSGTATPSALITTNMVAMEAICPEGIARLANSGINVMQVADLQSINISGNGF
Experiment: ATG_Sp1_CIS: Attagene CIS-FACTORIAL HepG2 Assay for human Specificity Protein 1 (Sp1) (AID 2282961)
Conditions: HepG2 Sp1 cis-reporter transcription, actives raise or lower the signal
Calls of active or inactive are those of the source. How the source made its calls: active means hit-call score of the fitted dose curve at least 0.9, where 1 is the maximum; inactive means score below 0.9.
Labels: class 1 for active, class 0 for inactive

MOLECULE	ANSWER_LABEL
Nc1ccc(O)c([N+](=O)[O-])c1	class 0
Cc1cc(C)n(CO)n1	class 0
CC1=CCC(C(C)C)C=C1 (configuration not stated)	class 0
CC(C)c1ccc(O)c(C(C)C)c1	class 0
CC(=O)OC/C=C(/C)CCC=C(C)C	class 0
N#CC1(N)CCCCC1	class 0
O=C(O)c1cc(O)c2ccccc2c1O	class 0
c1ccc2sc(SSN3CCOCC3)nc2c1	class 1
O=C(O)C(F)(F)C(F)(F)C(F)(F)C(F)(F)C(=O)O	class 0
[Cl][Sc]([Cl])[Cl]	class 0
CCCCC1CCC(=O)O1 (configuration not stated)	class 0
O=C(O)C1CCC(C(=O)O)CC1 (configuration not stated)	class 0
CC(=O)/C=C/C1C(C)=CCCC1(C)C (configuration not stated)	class 0
CC(C)c1ccc2ncccc2c1	class 0
CCCCc1ccc(Cl)cc1	class 0
Nc1cccc(N)n1	class 0
CC(C)c1cc(C(C)C)cc(C(C)C)c1	class 1
CC(C)(C)N	class 0
CC(=O)OCc1ccccc1	class 0
CCC1COC(=O)O1 (configuration not stated)	class 0
Cc1c(O)cccc1O	class 0
CC(C)c1cccc(C(C)C)c1N	class 0
CCOC(=O)CC(=O)c1ccccc1	class 0
CC(C)(O)Cc1ccccc1	class 0
CCc1cccc(C)c1N(C(=O)CS(=O)(=O)O)C(C)COC (configuration not stated)	class 0
O=C1CCCCCCCCCCC1	class 0
CC(C)=CCl	class 0
